Origin of the recorded values: PubChem BioAssay (NCI)

# TGI values compiled below
test system: RPMI-8226 leukemia; assay: NCI tumour cell line growth inhibition, 48 h

Completed entries (count: 5):
[
  {
    "molecule": "COC(=O)[C@H](CNC(=O)/C=C/c1ccc(OC(C)=O)c(OC(C)=O)c1)NC(=O)/C=C/c1ccc(OC(C)=O)c(OC(C)=O)c1",
    "readout.type": "TGI",
    "result": "> 100 µM"
  },
  {
    "molecule": "C/C(=C1/N=C(c2cc([N+](=O)[O-])ccc2Cl)N(c2ccc(Br)cc2)C1=O)c1ccc(N(CCC#N)CCC#N)cc1C",
    "readout.type": "TGI",
    "result": "77.2 µM"
  },
  {
    "molecule": "COc1ccc(C(=O)/C=C/c2sc(Cl)nc2Cl)cc1",
    "readout.type": "TGI",
    "result": "4.77 µM"
  },
  {
    "molecule": "C=C1CC[C@@]2(C)[C@@H]([C@@H]1C)[C@H]1CC[C@@H]3[C@@]4(C)CC[C@H](O)C(C)(C)[C@@H]4CC[C@@]3(C)[C@]1(C)C[C@@H]2O",
    "readout.type": "TGI",
    "result": "> 100 µM"
  },
  {
    "molecule": "COC1(OC)CC2C(=O)N(Cc3ccccc3)C1C(S(=O)(=O)c1ccccc1)C2C(C)S(=O)(=O)c1ccccc1 (stereo not drawn)",
    "readout.type": "TGI",
    "result": "> 100 µM"
  }
]

Query: TGI; subject: O=C(CCC(=O)Nc1ccccc1C(F)(F)F)N/N=C1\C(=N\NC(=O)CCC(=O)Nc2ccccc2C(F)(F)F)C(c2ccc3c(c2)OCO3)Oc2ccccc21 (stereo not drawn)
> 100 µM

Need TGI, item Cc1ccc(C2(O)c3ccccc3C(=O)N(C)C2(O)c2ccc(C)cc2)cc1 (stereo not drawn)
> 100 µM

Find the recorded TGI belonging to Nc1nc(N)c2c(n1)NC(c1sc(Cl)nc1Cl)CC(c1ccccc1)=N2 (stereo not drawn) and report it.
31.5 µM

---

tested on: SK-MEL-5 melanoma; experiment: NCI tumour cell line growth inhibition, 48 h
readout.type: TGI

[
  {
    "compound": "COC(CNC(=O)CNC(=O)c1ccc(C(F)(F)F)cc1)OC",
    "readout.type": "TGI",
    "result": "> 100 µM"
  },
  {
    "compound": "O=C1/C(=C/c2cccnc2)SC(=S)N1Cc1ccco1",
    "readout.type": "TGI",
    "result": "> 51 µM"
  },
  {
    "compound": "Cc1cc(OCc2nc(N)nc(N)c2-c2ccc(Cl)c(Cl)c2)ccc1[N+](=O)[O-]",
    "readout.type": "TGI",
    "result": "15 µM"
  },
  {
    "compound": "O=C(CCC(=O)Nc1ccccc1C(F)(F)F)N/N=C1\\C(=N\\NC(=O)CCC(=O)Nc2ccccc2C(F)(F)F)C(c2ccc3c(c2)OCO3)Oc2ccccc21 (stereo not given)",
    "readout.type": "TGI",
    "result": "> 100 µM"
  },
  {
    "compound": "Cc1cc(S(=O)(=O)/N=C(\\N)Nc2cccc(O)c2)c(SCc2ccccc2)cc1Cl",
    "readout.type": "TGI",
    "result": "29.6 µM"
  },
  {
    "compound": "O=C1C=CC2(CCCCCCC2=O)CC1 (stereo not given)",
    "readout.type": "TGI",
    "result": "> 100 µM"
  },
  {
    "compound": "Cc1ccc(S(=O)(=O)NC(=O)Nc2c(S(N)(=O)=O)cc(S(N)(=O)=O)c(Cl)c2Cl)cc1",
    "readout.type": "TGI",
    "result": "> 100 µM"
  },
  {
    "compound": "O=C1OC(CC(=O)c2ccc(F)cc2)C(Cl)=C1Cl (stereo not given)",
    "readout.type": "TGI",
    "result": "60.4 µM"
  },
  {
    "compound": "O/N=C1/CCC/C1=C\\c1ccccc1",
    "readout.type": "TGI",
    "result": "> 100 µM"
  }
]

Param item = CCOC(=O)/C=C/n1c2ccccc2c(=O)c2cc(OC)ccc21 ; retrieve measured TGI.
> 100 µM
